Assay method text: Half life in lethal systemic CF-1 mouse infection model at 21.6 mg/kg, iv
Type: ADME, organism-based
Design: dose 21.6 mg/kg, route intravenous
Test parameters: in vivo
Parameter: half-life (h)
Give the value, in units of h, as a plain number.

What does the data say about its half-life? Entry: CC1CN2c3ccc([N+](=O)[O-])cc3CC3(C(=O)NC(=O)NC3=O)C2C(C)O1 (racemic)
1.22

----------
Assay method text: Inhibition of human DNA topoisomerase 4 by gel electrophoresis
Parameter: pIC50
Formally, pIC50 is defined as -log10 of the concentration c, with c in mol/L.

What does the data say about its pIC50? Entry: CC1CN2c3ccc([N+](=O)[O-])cc3CC3(C(=O)NC(=O)NC3=O)C2C(C)O1 (racemic)
3.70

----------
Assay method text: Volume of distribution at steady state in lethal systemic CF-1 mouse infection model at 21.6 mg/kg, iv
Format: ADME, organism-based
Parameters: dose 21.6 mg/kg, route intravenous
Test parameters: in vivo, read-out: Vdss
Parameter: Vd (L/kg)
Give the value, in units of L/kg, as a plain number.

What does the data say about its Vd? Entry: CC1CN2c3ccc([N+](=O)[O-])cc3CC3(C(=O)NC(=O)NC3=O)C2C(C)O1 (racemic)
0.623
